- System: Leukemia L1210
- assay-protocol: Activity against Leukemia L1210, intraperitoneal, increase in life span of mice
- Type: in vivo, female mice (BDF1 family)
- condition-description: Mus musculus, L1210, ip, ip once a day for 5 successive days; daily dosage giving maximum increase of life span; read-out: O.D. (optimum dosage)
- Method: Tests were conducted in accordance with the method for measuring antitumor activity of National Cancer Center Tokyo (A, Hoshi et al, Farumashia 9 464 (1973)). […] An increase percentage of life span (ILS%) was calculated from said average survival days compared with those of the control group. […]
measure-name: ED (maximum ILS) (mg/kg)
Report the figure in mg/kg without appending any unit label.

For reference, reported ED (maximum ILS) for CCOCCCN(C(=O)N(CCCl)N=O)C1C(OC2CCCCC2)OC(CO)C(O)C1O (stereo not shown) stands at 200

For reference, reported ED (maximum ILS) for CCCCOC1OC(CO)C(O)C(N(CCCOC)C(=O)N(CCCl)N=O)C1O (stereo not shown) stands at 200

For reference, reported ED (maximum ILS) for C=C(C)CN(C(=O)N(CCCl)N=O)C1C(CO)OC(OC2CCCCC2)C(O)C1O (stereo not shown) stands at 120

For reference, reported ED (maximum ILS) for COCCN(C[C@H]1O[C@H](OC2CCCCC2)[C@H](O)[C@@H](O)[C@H]1O)C(=O)N(CCCl)N=O stands at 200

For reference, reported ED (maximum ILS) for CC(C)CO[C@H]1O[C@H](CN(CC(C)(C)C)C(=O)N(CCCl)N=O)[C@@H](O)[C@H](O)[C@H]1O stands at 170

For reference, reported ED (maximum ILS) for COC(C)CN(C(=O)N(CCCl)N=O)[C@H]1CO[C@@H](OCC(C)C)[C@H](O)[C@H]1O (stereo partly shown) stands at 150

For reference, reported ED (maximum ILS) for C=C(C)CN(C(=O)N(CCCl)N=O)[C@H]1[C@@H](OC(C)CC)O[C@H](CO)[C@@H](O)[C@@H]1O (stereo partly shown) stands at 200
